target entity: wild-type human cardiac sodium channel, hNav1.5 (Homo sapiens, UniProt Q14524)
Sequence (Q14524 whole entry): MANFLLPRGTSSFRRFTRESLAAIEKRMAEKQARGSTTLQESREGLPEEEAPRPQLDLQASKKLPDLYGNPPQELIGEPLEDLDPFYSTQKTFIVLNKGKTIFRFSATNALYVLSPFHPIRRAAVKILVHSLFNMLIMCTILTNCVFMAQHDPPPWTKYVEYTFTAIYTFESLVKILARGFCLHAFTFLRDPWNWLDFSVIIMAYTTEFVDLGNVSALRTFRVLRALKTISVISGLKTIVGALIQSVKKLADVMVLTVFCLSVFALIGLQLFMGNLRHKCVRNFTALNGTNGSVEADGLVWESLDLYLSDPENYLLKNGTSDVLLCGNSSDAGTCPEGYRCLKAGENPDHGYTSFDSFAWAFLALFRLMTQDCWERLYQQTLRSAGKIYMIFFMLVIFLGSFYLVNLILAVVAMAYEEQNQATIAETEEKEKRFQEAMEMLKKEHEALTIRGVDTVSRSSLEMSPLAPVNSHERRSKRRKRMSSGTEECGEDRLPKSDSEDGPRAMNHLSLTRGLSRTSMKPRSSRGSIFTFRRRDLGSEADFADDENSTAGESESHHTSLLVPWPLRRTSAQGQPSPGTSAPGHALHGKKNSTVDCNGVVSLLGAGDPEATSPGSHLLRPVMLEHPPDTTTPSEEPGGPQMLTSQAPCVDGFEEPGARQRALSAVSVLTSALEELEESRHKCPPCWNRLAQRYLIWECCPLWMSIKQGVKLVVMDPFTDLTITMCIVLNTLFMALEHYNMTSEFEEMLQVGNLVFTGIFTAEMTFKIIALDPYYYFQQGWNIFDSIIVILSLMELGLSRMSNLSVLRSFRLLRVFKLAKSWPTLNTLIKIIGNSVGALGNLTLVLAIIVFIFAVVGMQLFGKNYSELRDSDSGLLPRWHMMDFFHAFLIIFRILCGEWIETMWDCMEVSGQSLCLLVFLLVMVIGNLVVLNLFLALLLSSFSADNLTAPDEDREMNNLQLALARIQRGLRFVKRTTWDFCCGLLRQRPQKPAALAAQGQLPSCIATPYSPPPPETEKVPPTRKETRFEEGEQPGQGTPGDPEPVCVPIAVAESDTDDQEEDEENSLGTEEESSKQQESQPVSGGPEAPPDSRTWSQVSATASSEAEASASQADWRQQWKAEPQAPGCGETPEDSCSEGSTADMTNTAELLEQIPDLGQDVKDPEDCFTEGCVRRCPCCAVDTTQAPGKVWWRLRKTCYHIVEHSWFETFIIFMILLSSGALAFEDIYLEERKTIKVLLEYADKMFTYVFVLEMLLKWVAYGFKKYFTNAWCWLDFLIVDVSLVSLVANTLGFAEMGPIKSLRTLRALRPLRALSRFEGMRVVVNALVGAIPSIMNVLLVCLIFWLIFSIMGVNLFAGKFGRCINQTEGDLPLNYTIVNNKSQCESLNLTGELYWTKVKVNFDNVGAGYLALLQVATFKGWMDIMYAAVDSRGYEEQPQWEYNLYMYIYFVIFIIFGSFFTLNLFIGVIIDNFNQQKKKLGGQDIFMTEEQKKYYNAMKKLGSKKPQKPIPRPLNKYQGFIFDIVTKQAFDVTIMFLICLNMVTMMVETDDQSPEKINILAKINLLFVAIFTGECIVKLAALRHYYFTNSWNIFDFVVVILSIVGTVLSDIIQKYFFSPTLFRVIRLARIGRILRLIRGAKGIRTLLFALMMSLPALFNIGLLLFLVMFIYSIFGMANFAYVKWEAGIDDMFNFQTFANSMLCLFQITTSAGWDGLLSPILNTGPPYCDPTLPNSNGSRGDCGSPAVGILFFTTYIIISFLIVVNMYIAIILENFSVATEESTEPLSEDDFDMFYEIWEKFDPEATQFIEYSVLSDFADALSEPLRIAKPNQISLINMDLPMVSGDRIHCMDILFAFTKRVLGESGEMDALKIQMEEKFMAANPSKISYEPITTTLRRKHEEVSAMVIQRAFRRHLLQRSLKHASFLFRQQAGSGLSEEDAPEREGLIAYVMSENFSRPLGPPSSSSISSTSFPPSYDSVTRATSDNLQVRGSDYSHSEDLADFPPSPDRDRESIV
experiment description: Peak INa screening assay (tonic block and use-dependent block)
Type: cell-based
condition parameters: use-dependent block of Peak INa, 3 Hz, pulse 50, read-out: Peak UDB 3 Hz 3 uM

# compound, inhibition at 3 µM
rows = [
    ("Cc1nccnc1COc1noc2ccc(-c3ccc(OC(F)(F)F)cc3)cc12 [Example 152]", "< 5%"),
    ("Fc1cc2onc(OCc3ncccn3)c2cc1-c1ccc(OC(F)(F)F)cc1 [Example 31]", "< 5%"),
    ("CC(=O)N1CCC[C@H]1COc1noc2ccc(-c3ccc(OC(F)(F)F)cc3)cc12 [Example 109]", "< 5%"),
    ("CC(C)n1ccnc1COc1noc2ccc(-c3ccc(OC(F)(F)F)cc3)cc12 [Example 48]", "5.7%"),
    ("COc1cc2onc(OCc3ncccn3)c2cc1-c1ccc(OC(F)(F)F)c(C)c1 [Example 14]", "6.4%"),
    ("CN1CC(COc2noc3ccc(-c4ccc(OC(F)(F)F)cc4)cc23)CC1=O (stereo not drawn) [Example 56]", "31.4%"),
    ("FC(F)(F)Oc1ccc(-c2ccc3onc(OCc4cnccn4)c3c2)cc1 [Example 151]", "< 5%"),
    ("FC(F)(F)Oc1ccc(-c2ccc3onc(OCc4nccn4-c4ccccc4)c3c2)cc1 [Example 64]", "< 5%"),
    ("CC(Oc1noc2ccc(-c3ccc(OC(F)(F)F)cc3)cc12)c1ccccn1 (stereo not drawn) [Example 98]", "< 5%"),
]

Recorded values, source patent US9416115B2.
